# tested-target: pooled human IgG (human IgG1, 2, 3 and 4)
readout: Enzyme Activity Endpoint Assay (purified): Fc (ng/µL)
Value expressed in ng/µL; do not type the unit.

The recorded Enzyme Activity Endpoint Assay (purified): Fc for PRT-391 (protein) MVTSVWTKGVTPPTNFTYGEDVLHAPYVANQGWYDITKTFNGKDDLLCGAATAGNMLHWWFDQNKEQIENYLKKHPEKQKINFNGEQMFDVKEAIDTKDSQLDSKLFEYFKEKAFPYLSTKHLGVFPDHVIDMFINGYRLSLTNHGPTPVKRGSKDKRGGIFDAVFTRGDQSKLLTNRHDFKEKTLKEISDLIKQELTEGKALGISHTYANVRINHVINLWGADFDAEGNLEAIYVTDSDSNASIGMKKYFVGVNSNGKVAISAKEIEEDNIGAQVLGLFTLSTGQDIWNQTN is 361
